Target: Jak2 (UniProt O60674)
Sequence (O60674 whole entry, looked up): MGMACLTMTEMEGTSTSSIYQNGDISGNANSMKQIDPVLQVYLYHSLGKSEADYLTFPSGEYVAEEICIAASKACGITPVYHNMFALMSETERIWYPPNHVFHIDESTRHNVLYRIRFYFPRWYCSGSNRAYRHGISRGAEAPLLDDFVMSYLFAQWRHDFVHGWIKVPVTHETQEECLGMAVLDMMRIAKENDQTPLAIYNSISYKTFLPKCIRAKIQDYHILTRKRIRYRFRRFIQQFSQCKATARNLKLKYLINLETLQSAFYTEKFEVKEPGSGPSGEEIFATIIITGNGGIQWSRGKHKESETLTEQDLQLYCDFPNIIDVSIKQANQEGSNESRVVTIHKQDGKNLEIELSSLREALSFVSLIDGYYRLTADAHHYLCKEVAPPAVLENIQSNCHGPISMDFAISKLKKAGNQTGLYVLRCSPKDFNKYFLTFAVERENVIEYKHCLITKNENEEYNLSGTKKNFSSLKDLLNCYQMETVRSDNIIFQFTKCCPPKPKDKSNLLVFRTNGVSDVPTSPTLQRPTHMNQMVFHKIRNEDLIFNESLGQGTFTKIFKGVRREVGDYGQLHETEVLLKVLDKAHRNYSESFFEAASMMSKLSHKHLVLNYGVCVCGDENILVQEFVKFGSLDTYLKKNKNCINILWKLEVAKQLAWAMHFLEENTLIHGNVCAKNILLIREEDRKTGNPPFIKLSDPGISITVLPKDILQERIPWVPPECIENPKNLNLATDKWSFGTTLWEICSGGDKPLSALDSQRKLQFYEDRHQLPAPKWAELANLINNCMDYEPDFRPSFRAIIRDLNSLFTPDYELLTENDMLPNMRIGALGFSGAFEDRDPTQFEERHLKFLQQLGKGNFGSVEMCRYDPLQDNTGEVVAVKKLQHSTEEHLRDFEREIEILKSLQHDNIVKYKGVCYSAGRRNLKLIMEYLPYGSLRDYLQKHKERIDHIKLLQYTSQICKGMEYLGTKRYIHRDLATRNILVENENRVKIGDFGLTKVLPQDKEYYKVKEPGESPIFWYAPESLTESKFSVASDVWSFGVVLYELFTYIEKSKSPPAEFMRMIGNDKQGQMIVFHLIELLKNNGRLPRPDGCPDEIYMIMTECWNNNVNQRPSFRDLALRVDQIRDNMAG
Assay: phosphorylation enrichment, bacterial display (enrichment ratio); higher = better substrate or ligand; peptides without Tyr show the background;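 note: 11-residue human phosphosite peptides and single-mutation variants displayed on the E. coli surface, counted by deep sequencing, each peptide's frequency after selection divided by its frequency in the unselected input library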;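 note: frequency after pTyr selection over input frequency; kinase dosed for 20-30% of maximal phosphorylation in three min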
Entries are sorted into classes by phosphorylation enrichment as follows: small value: < 0.6; mid value: ≥ 0.6 and < 1; large value: ≥ 1

> print(dat)
                        sequence.code        group
 1             TKDTFYKQPMF [GBA_Y451]  small value
 2        RPFRPYIIRGM [LRP5_Y1531_YF]    mid value
 3     NTDETYCIDNK [TUBB3_Y200_E205K]  large value
 4   LKYAIYFEVRE [LAMA2_Y1258_A1261V]  large value
 5      PLDVEYFTLQI [TP53_Y327_G325V]  large value
 6      LNLKDYNLVGG [GNAQ_Y356_E355D]  small value
 7           EKMWSYMKSAE [GRIA3_Y705]    mid value
 8     VMTLDYSKTVV [SETD2_Y770_V768L]    mid value
 9          PQGVRYIFTID [DCX_Y103_YF]  large value
10      RMSQRYRDVLQ [CYP1A2_Y72_G73R]    mid value
11          LNPLIYTLKNA [OR4C46_Y285]  small value
12   ESSKAYERDLS [TTC37_Y1074_A1077D]  small value
13       FSAPNYCFRCG [PPP2CA_Y265_YF]  small value
14       PVQAADQKVVA [HBB_Y131_Y131D]    mid value
15  FISLIYTNFEV [GSTP1_Y109_A114V_YF]  large value
16     FTRNFYVQAVL [CYBA_Y88_R90Q_YF]  large value
17        FSMGCYEISLG [HMGCL_Y198_YF]  large value
18   RLPINYTTRRI [LAMA2_Y2894_G2889R]  small value
19         LTFHMYADPNF [SOS1_Y618_YF]  large value
20     QEIATCRRLLE [KRT14_Y415_Y415C]    mid value
21         KRAIGYYSATS [FAM120A_Y327]  small value
22     EGGFAYVPLKD [PRIM2_Y208_D204G]  large value
23     GKFHMYVAVWT [F13A1_Y161_R159H]  large value
24      KQMEQYMSFHK [HCN1_Y417_V414M]  small value
25       ADVLDYIKALN [HPRT1_Y81_L78V]    mid value

----------
Target: Hck (UniProt P08631)
Sequence (P08631 whole entry, looked up): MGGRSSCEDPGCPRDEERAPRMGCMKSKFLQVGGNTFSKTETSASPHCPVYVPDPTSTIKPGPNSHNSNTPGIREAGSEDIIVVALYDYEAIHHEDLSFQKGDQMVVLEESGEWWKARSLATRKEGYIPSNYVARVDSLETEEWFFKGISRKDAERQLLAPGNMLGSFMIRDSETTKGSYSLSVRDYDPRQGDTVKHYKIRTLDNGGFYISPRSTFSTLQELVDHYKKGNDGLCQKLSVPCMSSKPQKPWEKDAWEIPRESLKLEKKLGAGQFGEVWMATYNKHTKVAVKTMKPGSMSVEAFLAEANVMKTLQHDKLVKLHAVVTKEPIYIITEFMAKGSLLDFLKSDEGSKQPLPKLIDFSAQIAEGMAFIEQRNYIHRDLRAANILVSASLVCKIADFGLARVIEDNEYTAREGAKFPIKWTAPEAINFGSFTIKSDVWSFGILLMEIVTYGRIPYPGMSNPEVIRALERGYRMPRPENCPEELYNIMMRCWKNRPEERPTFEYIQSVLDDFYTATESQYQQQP
Assay: phosphorylation enrichment, bacterial display (enrichment ratio); higher = better substrate or ligand; peptides without Tyr show the background
Reported phosphorylation enrichment values for a set of sequences
MEASURED_QUANTITY: phosphorylation enrichment

> print(dat)
                         sequence.code           measured.quantity  endpoint.value
 1            EKMWSYMKSAE [GRIA3_Y705]  phosphorylation enrichment           0.365
 2       KGPGEYVNIEF [IRS1_Y896_S892G]  phosphorylation enrichment           0.498
 3  EFFDGYWEFSV [ITGA2B_Y265_G267E_YF]  phosphorylation enrichment            2.29
 4     AKRKNYAPVTM [CFAP47_Y557_A561T]  phosphorylation enrichment           0.371
 5         ALIKAYVKAVA [SMN1_Y43_D44V]  phosphorylation enrichment           0.464
 6            EVTLTYATGTK [NFKB1_Y485]  phosphorylation enrichment           0.514
 7              RWGQKYMTAVV [CYBA_Y72]  phosphorylation enrichment           0.609
 8    VIKDKYPKVRF [APTX_Y209_A212V_YF]  phosphorylation enrichment           0.443
 9      GHLYACDWISI [BEST1_Y227_Y227C]  phosphorylation enrichment           0.846
10            SVEELYAIPPD [PEAK1_Y797]  phosphorylation enrichment            4.24
11            EFGEVYKGMLK [EPHA2_Y628]  phosphorylation enrichment           0.454
12       PLDGEYVTLQI [TP53_Y327_F328V]  phosphorylation enrichment           0.922
13    QNTGVYFDLFG [PTPN11_Y62_D61V_YF]  phosphorylation enrichment            3.34
14       KQMEQYMSFHK [HCN1_Y417_V414M]  phosphorylation enrichment            4.18
15    CSTIHYNFMCN [TP53_Y234_T230S_YF]  phosphorylation enrichment           0.375
16       SETDDYAEIIV [PTK2_Y397_D402V]  phosphorylation enrichment           0.655
17        GRSTFYWPRPR [GAGE12J_Y10_YF]  phosphorylation enrichment           0.713
18             DPTNTYARPAE [SGMS2_Y24]  phosphorylation enrichment           0.506
19    NTTIHYNFMCN [TP53_Y234_C229N_YF]  phosphorylation enrichment           0.511
20             GTATAYLCGVK [ALPL_Y117]  phosphorylation enrichment           0.501
21   KDHPDYKFPPR [SOX10_Y171_Q174P_YF]  phosphorylation enrichment           0.382
22         FRKNIYNVKST [SYNE2_Y575_YF]  phosphorylation enrichment           0.251
23            PAEPRYRARQR [KCNJ11_Y26]  phosphorylation enrichment           0.878
24         HGDDDYDDPEL [CLNK_Y69_S65G]  phosphorylation enrichment           0.743
25      MARDISRASYY [ALK_Y1278_Y1278S]  phosphorylation enrichment           0.395
26        SSWPDYVRPLP [HSPB1_Y54_G53D]  phosphorylation enrichment           0.511
27      LTERSYSFVTT [ACTA1_Y200_G199S]  phosphorylation enrichment            1.04
28             ADARMYGVLPW [PLP1_Y207]  phosphorylation enrichment            9.33
29             DFPIGYPSYLA [TBCK_Y153]  phosphorylation enrichment           0.422
